System: Schistosoma mansoni schistosomula (LE)
Experiment: XTT viability relative to DMSO control; higher = more viable (less active)
Conditions: 72 h; 10 µM
observable: XTT viability (%)
Value expressed in %; do not type the unit.

Ask: Query XTT viability on Schistosoma mansoni schistosomula (LE) for "CC(C)(C)n1nc(Cc2cccc3ccccc23)c2c(N)ncnc21"
Reply: 85.5

Ask: Query XTT viability on Schistosoma mansoni schistosomula (LE) for "CS(=O)(=O)c1cccc(-c2cnc3[nH]cc(-c4ccc(CCC(=O)O)cc4)c3c2)c1"
Reply: 86.9

Ask: Query XTT viability on Schistosoma mansoni schistosomula (LE) for "COc1ccc(C2=NN(C3CCCCCC3)C(=O)C2(C)C)cc1OCCCCOc1ccc(-c2nn[nH]n2)cc1"
Reply: 3.51

Ask: Query XTT viability on Schistosoma mansoni schistosomula (LE) for "CCc1ccc([C@@H]2C[C@H](C(F)(F)F)n3ncc(C(=O)NCc4ccc(OC)cc4)c3N2)cc1"
Reply: 99.5

Ask: Query XTT viability on Schistosoma mansoni schistosomula (LE) for "Oc1c(I)cc(I)c2cccnc12"
Reply: 6.58

Ask: Query XTT viability on Schistosoma mansoni schistosomula (LE) for "Cc1ccc(C(=O)Nc2ccc(S(=O)(=O)O)c3cc(S(=O)(=O)O)cc(S(=O)(=O)O)c23)cc1NC(=O)c1cccc(NC(=O)Nc2cccc(C(=O)Nc3cc(C(=O)Nc4ccc(S(=O)(=O)O)c5cc(S(=O)(=O)O)cc(S(=O)(=O)O)c45)ccc3C)c2)c1"
Reply: 94.8

Ask: Query XTT viability on Schistosoma mansoni schistosomula (LE) for "COc1cncc(-c2cncc(N3CCN(c4ccncc4)CC3)n2)c1"
Reply: 103

Ask: Query XTT viability on Schistosoma mansoni schistosomula (LE) for "COc1ccccc1CNC(=O)c1cc(C2CC2)nc2c1cnn2C(C)C"
Reply: 38.4

Ask: Query XTT viability on Schistosoma mansoni schistosomula (LE) for "NCC(=O)N1CCn2c(nc(-c3ccccc3)c2Nc2ccc3c(c2)OCO3)C1"
Reply: 129

Ask: Query XTT viability on Schistosoma mansoni schistosomula (LE) for CC1=NN(c2nc3ccccc3s2)C(=O)C1Cc1cccc2ccccc12 (stereo not given)
Reply: 61.8

Ask: Query XTT viability on Schistosoma mansoni schistosomula (LE) for "O=C(C1CCN(c2nnnn2-c2ccccc2)CC1)N1CCc2ccccc2C1"
Reply: 117

Ask: Query XTT viability on Schistosoma mansoni schistosomula (LE) for "Cc1ccc(-c2nc(CN(Cc3ccccn3)C(C)C)cs2)o1"
Reply: 84.4

Ask: Query XTT viability on Schistosoma mansoni schistosomula (LE) for "COc1ccc(Oc2ccc([C@@H](C)N(C)c3ncc4c(N)nc(N)nc4n3)cc2)cc1"
Reply: 4.74

Ask: Query XTT viability on Schistosoma mansoni schistosomula (LE) for "c1ccc(Oc2ccc(-c3cc(C4CCOCC4)[nH]n3)cc2)cc1"
Reply: 98.4

Ask: Query XTT viability on Schistosoma mansoni schistosomula (LE) for "Cc1ccc2nc(C)c(-c3ccn(Cc4ccccc4)n3)n2c1"
Reply: 95.7

Ask: Query XTT viability on Schistosoma mansoni schistosomula (LE) for "COc1ccc(C2=NCCN2)cc1-c1cn(-c2cccc(C3=NCCN3)c2)nn1"
Reply: 85.9

Ask: Query XTT viability on Schistosoma mansoni schistosomula (LE) for "O=C([C@@H](c1ccc(Cl)cc1)c1cccnc1)N1CCN(c2ccc(C(F)(F)F)cc2)CC1"
Reply: 46.8

Ask: Query XTT viability on Schistosoma mansoni schistosomula (LE) for "CC(C)(C(=O)Nc1ccc(F)cc1)n1cc(-c2ccccc2F)cn1"
Reply: 128

Ask: Query XTT viability on Schistosoma mansoni schistosomula (LE) for "Cc1cccnc1NC(=O)c1cccc(OCc2c(C)noc2C)c1"
Reply: 114

Ask: Query XTT viability on Schistosoma mansoni schistosomula (LE) for "CN1CCC(c2cc(-c3ccncc3)c(-c3ccc(F)cc3)[nH]2)CC1"
Reply: 94.6

----------
Kindly state XTT viability for each of the entries shown.
System: Schistosoma mansoni schistosomula (LE)
Experiment: XTT viability relative to DMSO control; higher = more viable (less active)
Settings: 72 h; 10 µM
Value expressed in %; do not type the unit.

Ask: # input molecule: "Cc1cc(NC(=O)c2ccc(S(=O)(=O)N(Cc3ccccc3)C(C)C)cc2)no1" ; wanted: its XTT viability
Reply: 106

Ask: # input molecule: COc1cc(NC(C)CCCN)c2ncccc2c1 (stereo unspecified) ; wanted: its XTT viability
Reply: 77.4

Ask: # input molecule: c1ccc(-c2[nH]c3ccccc3c2C(c2ccccn2)N2CCCC2)cc1 (stereo unspecified) ; wanted: its XTT viability
Reply: -3.4

Ask: # input molecule: "c1ccc(-c2cc(N3CCCCC3)c3ccccc3n2)nc1" ; wanted: its XTT viability
Reply: 59.9

Ask: # input molecule: "COc1ccc(-c2cnc3cnc(-c4cccc(OC(C)C)c4)cn23)cc1" ; wanted: its XTT viability
Reply: 39

Ask: # input molecule: CNC(=O)C1Cc2ccccc2N1C(=O)Cc1ccc(F)cc1 (stereo unspecified) ; wanted: its XTT viability
Reply: 84.2

Ask: # input molecule: "Nc1ncc(Br)cc1-c1nc2cc(Cl)cnc2[nH]1" ; wanted: its XTT viability
Reply: 131

Ask: # input molecule: "c1ccc(-c2nc(NC3CCCCC3)cc(C3CC3)n2)nc1" ; wanted: its XTT viability
Reply: 16.4

Ask: # input molecule: Cc1ccc2[nH]c(C3CCCNC3)c(-c3ccncc3)c2c1 (stereo unspecified) ; wanted: its XTT viability
Reply: 75.2

Ask: # input molecule: "Cn1ccnc1CNCCS(=O)(=O)c1cccc(Nc2ccc(-c3cccc(F)c3)cn2)c1" ; wanted: its XTT viability
Reply: 114

Ask: # input molecule: "O=C(Nc1ccccc1-c1nc2c(C(=O)O)cccc2o1)c1ccccc1" ; wanted: its XTT viability
Reply: 54.1

----------
Tested on: Schistosoma mansoni schistosomula (LE)
Experiment: XTT viability relative to DMSO control; higher = more viable (less active)
Settings: 72 h; 10 µM
observable: XTT viability (%)
Value expressed in %; do not type the unit.

Ask: # input molecule: "C[C@H]1c2cccc(O)c2C(=O)C2=C(O)[C@]3(O)C(=O)C(C(N)=O)=C(O)[C@@H](N(C)C)[C@@H]3[C@@H](O)[C@@H]21" ; wanted: its XTT viability
Reply: 165

Ask: # input molecule: "NS(=O)(=O)c1cncc(-c2ccc3nccc(-c4cn[nH]c4)c3n2)c1" ; wanted: its XTT viability
Reply: 98.4

Ask: # input molecule: "CC(C)(C)OC(=O)N1CCC(Cn2nc(-c3cnc4ccccc4c3)c3c(N)ncnc32)CC1" ; wanted: its XTT viability
Reply: 125

Ask: # input molecule: "COc1nc2ccc(Br)cc2cc1[C@@H](c1ccccc1)[C@@](O)(CCN(C)C)c1cccc2ccccc12" ; wanted: its XTT viability
Reply: 7.23

Ask: # input molecule: CNC1C(OC2C(OC3C(O)C(O)C(NC(=N)N)C(O)C3NC(=N)N)OC(C)C2(O)C=O)OC(CO)C(O)C1O (centres undefined) ; wanted: its XTT viability
Reply: 93

Ask: # input molecule: "O=C(COc1cccc(F)c1)Nc1nc(-c2ccccn2)cs1" ; wanted: its XTT viability
Reply: 68.1

Ask: # input molecule: "COc1ccc(-c2cc(NC(=O)c3ccc(F)cc3Cl)ccc2OC)cc1" ; wanted: its XTT viability
Reply: 89.7

Ask: # input molecule: "CNC(=O)c1cc(S(=O)(=O)N2CCN(c3ccccn3)CC2)cs1" ; wanted: its XTT viability
Reply: 73.4

Ask: # input molecule: "CCOc1ccc(OCC(=O)Nc2cc(C)cc(C)c2)cc1" ; wanted: its XTT viability
Reply: 67

----------
Tested on: Schistosoma mansoni schistosomula (NMRI)
Assay: phenotypic severity score (0-4); higher = more antischistosomal effect, active = 2 or more
Details: 24 h; 10 µM
Lab note: assign the record to one of 1 (active), 0 (inactive)

Ask: How was CC(C)C(Oc1cccc2ccccc12)C(=O)O (stereo not given) classified in this test?
Reply: 0

Ask: How was NCCCC(N)(C(=O)O)C(F)F (stereo not given) classified in this test?
Reply: 0

Ask: How was "Cc1ccc(-c2nc(CN(Cc3ccccn3)C(C)C)cs2)o1" classified in this test?
Reply: 0

Ask: How was "O=C(Nc1ccc(C(F)(F)F)c(C(F)(F)F)c1)c1cc(Cl)ccc1O" classified in this test?
Reply: 1

Ask: How was "Cc1ccc2nc(C)c(-c3ccn(Cc4ccccc4)n3)n2c1" classified in this test?
Reply: 1

Ask: How was "O=C(NCCc1ccn(-c2ccccc2)n1)C1CCCCC1" classified in this test?
Reply: 0

Ask: How was "CC(C)(C)n1nc(-c2ccccc2)c2c(N)ncnc21" classified in this test?
Reply: 0

Ask: How was "N=C(N)Nc1ccc(-c2ccc(-c3ccc(NC(=N)N)cc3Cl)o2)c(Cl)c1" classified in this test?
Reply: 0

Ask: How was NCCC(O)C(=O)N[C@@H]1C[C@H](N)[C@@H](OC2O[C@H](CN)[C@@H](O)[C@H](O)[C@H]2O)[C@H](O)C1OC1O[C@H](CO)[C@@H](O)[C@H](N)[C@H]1O (stereo not given in full) classified in this test?
Reply: 0

Ask: How was "COc1cc(NC(=O)Cc2nn(C)c(=O)c3ccccc23)ccc1Cl" classified in this test?
Reply: 0
